Just for reference, PubChem BioAssay (NCI) is where these values come from.

- System: SF-295 CNS
- Measurement description: NCI-60 one-dose screen, 48 h (100 = growth as untreated, 0 = no growth, -100 = all killed)
- Condition parameters: 10 µM unless noted
The panel holds about 83,000 compounds, 20% with a hit somewhere; the sample as a whole holds those more often. The source made the active and inactive calls. The calls were made as follows: active = growth percent below 10; inactive = the rest.
# Lookup of reported growth keyed by entry

Solved entries (count: 8):
COc1ccc(Nc2[nH]n3c(=O)cc(-c4ccccc4)nc3c2C(=O)Nc2ccc(C)cc2)c(OC)c1    95.7% (inactive)
Oc1ccc(Cl)cc1-c1cc(-c2ccc(F)cc2)n[nH]1    49.2% (inactive)
O=C(c1ccccc1)c1c(/C=C/c2ccccc2)c2ccccc2[nH]c1=O    95.6% (inactive)
CCc1ccc(-c2ccc(=O)n(-c3ccc(S(N)(=O)=O)cc3)n2)cc1    18.4% (inactive)
COc1ccc(NC(=O)c2c(Nc3ccc(OC)cc3OC)n[nH]c2N)c(OC)c1    92.1% (inactive)
COc1cc(/C=C/C(=O)c2ccc(Nc3ncnc4cc(OC)c(OC)cc34)cc2)cc(OC)c1    93.3% (inactive)
N/C(=N\C(N)=N\c1nc2ccccc2s1)c1cccc(Br)c1    76% (inactive)
Brc1cccc(-c2cc(-c3ccc4c(c3)OCCCO4)[nH]n2)c1    62.3% [25 µM] (inactive)

Noted for `Cc1[nH]c2ccc(F)cc2c1CCNC(=O)C1CCN(C(=O)c2ccccc2)CC1` : its growth reads 96.1% [25 µM] (inactive)

Noted for `O=C1CCCCC1(c1ccccc1)c1ccccc1` : its growth reads 97% (inactive)

* * *

- Test system: SK-OV-3 ovarian
- Measurement description: NCI-60 one-dose screen, 48 h (100 = growth as untreated, 0 = no growth, -100 = all killed)
- Condition parameters: 10 µM unless noted
Compounds without any hit were thinned out: in the full panel of roughly 83,000, 20% have a hit.
Property name: growth (%)
All answers are understood in %, so give the number only.

Solved entries (count: 4):
COc1cc(/C=C/C(=O)N2CCN(C(=O)/C=C/c3cc(OC)c(OC)c(OC)c3)CC2)cc(OC)c1OC    116
NNc1cccc(/C=C/c2ccccc2)cc1=O    76.4
S=C(S)NCCc1c[nH]c2ccccc12    121
CN(C)c1cccc2c(S(=O)(=O)/N=C(\N)Nc3nc4ccccc4s3)cccc12    46.6

Noted for `O=C(Nc1cccc(-n2cc(-c3ccncc3)c(-c3ccc(Cl)c(O)c3)n2)c1)Nc1cccc(C(F)(F)F)c1` : its growth reads 21.2

* * *

- Tested on: KM12 colon
- Measurement description: NCI-60 one-dose screen, 48 h
- Condition parameters: 10 µM unless noted
Compounds without any hit were thinned out: in the full panel of roughly 83,000, 20% have a hit. Calls of active or inactive are those of the source. The calls were made as follows: active = growth percent below 10; inactive = the rest.
Outcome field: choose from active, inactive

Past entries and their recorded results:
COc1ccc(-c2c(-c3cc(OC)c4c(c3)OCO4)noc2N)cc1    active
O=[N+]([O-])c1ccc(OCCCOc2ccccc2)cc1    inactive

Data request: Kindly provide the recorded test outcome for the following compound: `FC(F)(F)c1cccc(-c2cn3c(ccc4ccccc43)n2)c1`
Data returned: inactive

Data request: Kindly provide the recorded test outcome for the following compound: `O=C(Nc1ccc2c(c1)OCCO2)C(=O)c1c[nH]c2ccccc12`
Data returned: inactive

Data request: Kindly provide the recorded test outcome for the following compound: `O=C1/C(=C/c2ccc(Cl)cc2)CN(Cc2cn(CCNc3ccnc4cc(Cl)ccc34)nn2)C/C1=C\c1ccc(Cl)cc1`
Data returned: active

Data request: Kindly provide the recorded test outcome for the following compound: CCOC(=O)C1C(=O)C=C(c2ccc(OC)cc2)CC1c1sc(N(C)Cc2ccccc2)nc1Cl (stereo not drawn)
Data returned: inactive
